Test system: 786-0 renal
experiment.notes: NCI tumour cell line growth inhibition, 48 h
Hi there, I'd appreciate the recorded TGI for every entry that follows.

Report measured TGI; entry is COC(=O)c1ccc(CCC2=CC(=O)C=CC2=O)cc1
5.58 µM

Report measured TGI; entry is NC1=C(c2nc(-c3ccccc3)cs2)C(c2ccco2)c2c(c3ccccc3oc2=O)O1 (stereo not drawn)
> 100 µM

Report measured TGI; entry is C/C=C1/C=CC2c3[nH]c4ccccc4c3CCN2C1 (stereo not drawn)
> 400 µM

Report measured TGI; entry is COc1cc(/C=C/c2cc(/C=C/c3ccc(O)c(OC)c3)n(C(=O)Nc3ccc(C)cc3)n2)ccc1O
1.81 µM

Report measured TGI; entry is CCOC(=O)c1cn(-c2ccc([N+](=O)[O-])cc2)c(=S)n2c1nc1ccccc12
> 100 µM

Report measured TGI; entry is COC(=O)/C=C1\C(CO[Si](C)(C)C(C)(C)C)OC(n2ccc(=O)[nH]c2=O)C1O (stereo not drawn)
16.6 µM

Report measured TGI; entry is O=C(c1c(F)c(F)c(F)c(F)c1F)n1c(=S)n(C(=O)c2c(F)c(F)c(F)c(F)c2F)c2ccccc21
> 100 µM

Report measured TGI; entry is CN(/N=C/c1ccccn1)C1=NCCN1
> 100 µM

Report measured TGI; entry is O=C(NO)c1ccc(CNc2cccc3nc(C4CC4)n(-c4ccccc4)c(=O)c23)cc1
5.2 µM

Report measured TGI; entry is Cc1nc2ccc(S(=O)(=O)O)cc2c(=O)n1-c1ccc(C(=O)NN2C(=O)C(Cl)C2c2cccs2)cc1 (stereo not drawn)
> 100 µM

Report measured TGI; entry is COc1cc(/C=C/C(=O)c2nc3cc(F)ccc3nc2C)cc(OC)c1OC
> 100 µM

Report measured TGI; entry is c1ccc(C(NC2=NCCO2)C2CC2)cc1 (stereo not drawn)
> 100 µM

Report measured TGI; entry is Fc1ccc2c(c1)SC1=Nc3sc4cc(F)ccc4[n+]3CN12
47.4 µM

Report measured TGI; entry is CC(=O)Oc1ccc(-c2nnc(-c3ccc(OC(C)=O)cc3)nn2)cc1
> 100 µM

Report measured TGI; entry is O=C1C[C@@H]2OCC=C3C[N+]4([O-])CC[C@]56c7ccccc7N1[C@H]5[C@H]2[C@H]3C[C@@H]64 (stereo partly drawn)
> 100 µM

Report measured TGI; entry is COC(=O)c1sc(=S)sc1SCc1cccc(CSc2sc(=S)sc2C(=O)OC)c1
> 100 µM

Report measured TGI; entry is COc1ccc(OC)c(/C=C2/C(=O)N=C(NC(C)=O)N2C)c1
> 100 µM

Report measured TGI; entry is Cc1cnc2[nH]c(-c3cccc4ccccc34)cc(=O)c2c1
> 100 µM

Report measured TGI; entry is CC(C)=CCC[C@@H](C)C1=C(N)C(O)=C(C)C(=O)C1=O
> 75 µM

Report measured TGI; entry is COC(=O)C(=O)C(C(=O)C(=O)Nc1cccc(OC)c1)c1nc2ccc(Cl)cc2[nH]c1=O (stereo not drawn)
> 100 µM

Report measured TGI; entry is C/C(=C\c1csc(C)n1)[C@@H]1C[C@@H]2O[C@]2(C)CCC[C@H](C)[C@H](O)[C@@H](C)C(=O)C(C)(C)[C@@H](O)CC(=O)N1
0.000356 µM

Report measured TGI; entry is O=C(O)CSc1cc(NS(=O)(=O)c2ccc(Br)cc2)c2ccccc2c1O
38.3 µM

Report measured TGI; entry is O=C(O)CCC(NC(=O)c1ccc(Nc2nc3ccc(C(F)(F)F)cc3nc2C(=O)O)cc1)C(=O)O (stereo not drawn)
> 100 µM

Report measured TGI; entry is O=C1[C@H](Cc2ccc(O)cc2)N2C(=O)CCN(C(=O)NCc3ccccc3)[C@H]2CN1Cc1cccc2ccccc12
> 46.8 µM

Report measured TGI; entry is O=C1NC(=O)C2C3C=CC(C12)C1C2C(=O)NC(=O)C2C31 (stereo not drawn)
> 1000 µM

Report measured TGI; entry is COc1cc(Nc2nc3cc(C)ccc3nc2-c2ccccc2)cc(OC)c1OC
33.9 µM

Report measured TGI; entry is CC(=O)O[C@H]([C@H](OC(C)=O)[C@H](C)OC(C)=O)[C@@H](/C=C/[C@H]1CC=CC(=O)O1)OC(C)=O
> 100 µM

Report measured TGI; entry is CCOC(OCC)(OCC)C(Br)CC (stereo not drawn)
37.8 µM

Report measured TGI; entry is O=C(OC1OC2COC(=O)c3cc(O)c(O)c(O)c3-c3c(cc(O)c(O)c3O)C(=O)OC3C2OC(=O)[C@@]24CC(=O)[C@@](O)(OC25C(=O)O[C@H]2[C@@H](O)CO[C@@]25O)C2(O)Oc5c(O)c(O)cc(c5C24)C(=O)OC13)c1cc(O)c(O)c(O)c1 (stereo partly drawn)
> 100 µM

Report measured TGI; entry is COc1cc2c(cc1OCCN1CCN(CCN3C(=O)c4cccc5cccc(c45)C3=O)CC1)N=C[C@@H]1CCCN1C2=O
33.4 µM

Report measured TGI; entry is COC(=O)/C(=N\N)C(C(=O)C(=O)Nc1cc(Cl)ccc1Cl)c1nc2ccc([N+](=O)[O-])cc2[nH]c1=O (stereo not drawn)
> 100 µM

Report measured TGI; entry is O=C(Nc1ccc(Cl)cc1Cl)C1C(=O)OC2(CCCCC2)OC1=O
30.3 µM

Report measured TGI; entry is C=CCN(c1cc(O)c2c(c(C)cn2S(=O)(=O)c2ccccc2)c1[N+](=O)[O-])S(C)(=O)=O
> 100 µM
